Measured Target: Cytochrome P450 2D6 (Homo sapiens)
Sequence (P10635 whole entry): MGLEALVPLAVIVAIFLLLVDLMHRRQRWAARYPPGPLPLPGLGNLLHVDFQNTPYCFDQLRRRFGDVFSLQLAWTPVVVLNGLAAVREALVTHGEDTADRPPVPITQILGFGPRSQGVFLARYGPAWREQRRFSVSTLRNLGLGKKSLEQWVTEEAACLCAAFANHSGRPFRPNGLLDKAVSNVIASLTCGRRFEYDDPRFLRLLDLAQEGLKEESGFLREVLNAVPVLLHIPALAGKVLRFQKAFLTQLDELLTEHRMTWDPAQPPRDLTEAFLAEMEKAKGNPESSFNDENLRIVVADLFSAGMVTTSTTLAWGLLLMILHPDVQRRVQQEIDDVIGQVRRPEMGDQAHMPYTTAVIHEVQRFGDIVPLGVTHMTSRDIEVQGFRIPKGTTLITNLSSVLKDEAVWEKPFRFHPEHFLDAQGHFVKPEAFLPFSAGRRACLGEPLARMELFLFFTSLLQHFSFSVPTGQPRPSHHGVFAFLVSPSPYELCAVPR

>  <Smiles String>
CCn1cc(-c2ccnc3[nH]ccc23)c(-c2cccc(NC(=O)Nc3cccc(OC)c3)c2)n1

>  <IC50>
200 nM

$$$$

---

Measured Target: UniProt:P11712
Sequence (P11712 whole entry): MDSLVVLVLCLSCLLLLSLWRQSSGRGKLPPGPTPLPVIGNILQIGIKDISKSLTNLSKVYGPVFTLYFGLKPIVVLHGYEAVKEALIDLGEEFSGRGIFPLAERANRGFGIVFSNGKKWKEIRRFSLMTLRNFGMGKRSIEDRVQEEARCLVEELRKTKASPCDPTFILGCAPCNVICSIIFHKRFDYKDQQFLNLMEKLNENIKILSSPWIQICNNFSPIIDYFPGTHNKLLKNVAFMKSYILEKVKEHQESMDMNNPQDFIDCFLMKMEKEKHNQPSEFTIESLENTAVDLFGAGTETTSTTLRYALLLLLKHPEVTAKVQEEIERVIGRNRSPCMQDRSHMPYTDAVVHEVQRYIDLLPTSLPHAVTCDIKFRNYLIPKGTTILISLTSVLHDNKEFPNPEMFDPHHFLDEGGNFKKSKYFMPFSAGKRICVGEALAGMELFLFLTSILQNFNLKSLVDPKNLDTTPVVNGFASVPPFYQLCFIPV
# maps each entry to its IC50

>  <Smiles String>
CCn1cc(-c2ccnc3[nH]ccc23)c(-c2cccc(NC(=O)Nc3cccc(OC)c3)c2)n1

>  <Unit>
nM

>  <IC50>
316

$$$$
>  <Smiles String>
CCn1cc(-c2ccnc3[nH]ccc23)c(-c2cccc(NC(=O)Nc3ccc(C(F)(F)F)cc3)c2)n1

>  <Unit>
nM

>  <IC50>
1260

$$$$

---

Measured Target: Serine/threonine-protein kinase B-raf (Homo sapiens, UniProt P15056)
Sequence (P15056 whole entry): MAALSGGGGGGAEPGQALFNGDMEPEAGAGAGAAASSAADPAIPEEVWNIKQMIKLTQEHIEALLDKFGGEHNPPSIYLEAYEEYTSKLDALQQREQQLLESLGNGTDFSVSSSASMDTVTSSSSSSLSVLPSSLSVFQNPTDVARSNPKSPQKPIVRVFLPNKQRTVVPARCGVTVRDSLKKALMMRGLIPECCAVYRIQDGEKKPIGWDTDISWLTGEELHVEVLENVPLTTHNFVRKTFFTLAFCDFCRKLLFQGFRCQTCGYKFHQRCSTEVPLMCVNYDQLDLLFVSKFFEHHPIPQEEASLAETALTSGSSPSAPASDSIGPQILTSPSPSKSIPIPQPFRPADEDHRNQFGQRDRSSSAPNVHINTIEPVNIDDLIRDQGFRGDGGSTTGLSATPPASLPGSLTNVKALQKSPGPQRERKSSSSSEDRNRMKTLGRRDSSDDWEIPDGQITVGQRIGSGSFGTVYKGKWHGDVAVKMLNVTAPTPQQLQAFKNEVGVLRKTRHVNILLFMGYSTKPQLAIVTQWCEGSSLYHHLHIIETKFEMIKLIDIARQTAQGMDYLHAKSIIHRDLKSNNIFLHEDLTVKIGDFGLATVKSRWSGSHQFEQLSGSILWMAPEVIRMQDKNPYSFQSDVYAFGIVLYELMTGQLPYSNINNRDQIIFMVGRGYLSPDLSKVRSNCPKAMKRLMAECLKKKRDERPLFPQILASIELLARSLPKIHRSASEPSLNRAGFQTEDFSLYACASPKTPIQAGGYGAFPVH

>  <Smiles String>
CCn1cc(-c2ccnc3[nH]ccc23)c(-c2cccc(NC(=O)Nc3cc(C(F)(F)F)ccc3F)c2)n1

>  <IC50 / µM>
0.0039

$$$$
>  <Smiles String>
CCn1cc(-c2ccnc3[nH]ccc23)c(-c2cccc(NC(=O)Nc3c(F)cccc3F)c2)n1

>  <IC50 / µM>
0.0257

$$$$
>  <Smiles String>
CCOC(=O)c1cc2c(-c3cn(CC)nc3-c3cccc(NC(=O)Nc4ccccc4)c3)ccnc2[nH]1

>  <IC50 / µM>
0.0339

$$$$
>  <Smiles String>
CCn1cc(-c2ccnc3[nH]ccc23)c(-c2cccc(NC(=O)Nc3ccc(Cl)c(C(F)(F)F)c3)c2)n1

>  <IC50 / µM>
0.0054

$$$$
>  <Smiles String>
CCn1cc(-c2ccnc3[nH]ccc23)c(-c2cccc(NC(=O)NC3CCCCC3)c2)n1

>  <IC50 / µM>
0.0417

$$$$
>  <Smiles String>
CCn1cc(-c2ccnc3[nH]ccc23)c(-c2cccc(NC(=O)Nc3cccc(OC)c3)c2)n1

>  <IC50 / µM>
0.0021

$$$$
